Recorded measurements of solubility kinetic, one per entry
Settings: buffer; pH 7.4; 200.0 µM

Completed entries (count: 2):
>>> endpoint_value("Nc1ccc[n+](CC(=O)c2ccccc2)c1.[Br-]")
"> 44 µg/mL"
>>> endpoint_value("Cc1ccc(Nc2ncnc(-n3cccc3)n2)cc1Cl")
"< 0.1 µg/mL"

Okay, next one:
Qu. Requested field: solubility kinetic. Item: COc1ccc(-c2cn3cccnc3n2)cc1
Ans. > 33.8 µg/mL

* * *

Details: buffer; pH 7.4; 200.0 µM
metric: solubility kinetic

>>> endpoint_value("Cc1cccc(OCC(=O)NCC(=O)N/N=C/c2cccnc2)c1")
"> 49 µg/mL"
>>> endpoint_value("O=C(c1cc2ccccc2cc1O)N1CCCC1")
"> 36.2 µg/mL"
>>> endpoint_value("COc1ccc(NC(=O)CCC(=O)N2CCCC2)c([N+](=O)[O-])c1")
"> 48.2 µg/mL"
>>> endpoint_value("C=CCN1CCN(C(=O)c2cc3c(s2)CCCC3)CC1")
"> 43.6 µg/mL"
>>> endpoint_value("Cc1nn(CC(=O)NCc2cccc(F)c2)c(=O)c2cccn12")
"> 47.1 µg/mL"
>>> endpoint_value("C=CCn1c(SCC(C)=O)nnc1-c1ccc2ncccc2c1")
"> 48.7 µg/mL"
>>> endpoint_value("COc1ccc(NC(=O)NCCc2ccc(Cl)cc2)cc1OC")
"< 0.4 µg/mL"
>>> endpoint_value("Cc1onc(-c2c(Cl)cccc2Cl)c1CO/N=C(\\C#N)c1c(Cl)cccc1Cl")
"< 0.3 µg/mL"

Qu. Requested field: solubility kinetic. Item: Nc1ccc([As](=O)(O)O)cc1
Ans. > 32.6 µg/mL

Qu. Requested field: solubility kinetic. Item: Cc1cc(C)c(S(=O)(=O)c2ccc(C(C)(C)C)cc2)c(Cl)n1
Ans. < 0.7 µg/mL

All figures here come from PubChem BioAssay AID1996.
